Ref: ChEMBL document CHEMBL4229332

- experimental system: Cytochrome P450 2C9 (Homo sapiens, UniProt P11712)
- Sequence (P11712 whole entry): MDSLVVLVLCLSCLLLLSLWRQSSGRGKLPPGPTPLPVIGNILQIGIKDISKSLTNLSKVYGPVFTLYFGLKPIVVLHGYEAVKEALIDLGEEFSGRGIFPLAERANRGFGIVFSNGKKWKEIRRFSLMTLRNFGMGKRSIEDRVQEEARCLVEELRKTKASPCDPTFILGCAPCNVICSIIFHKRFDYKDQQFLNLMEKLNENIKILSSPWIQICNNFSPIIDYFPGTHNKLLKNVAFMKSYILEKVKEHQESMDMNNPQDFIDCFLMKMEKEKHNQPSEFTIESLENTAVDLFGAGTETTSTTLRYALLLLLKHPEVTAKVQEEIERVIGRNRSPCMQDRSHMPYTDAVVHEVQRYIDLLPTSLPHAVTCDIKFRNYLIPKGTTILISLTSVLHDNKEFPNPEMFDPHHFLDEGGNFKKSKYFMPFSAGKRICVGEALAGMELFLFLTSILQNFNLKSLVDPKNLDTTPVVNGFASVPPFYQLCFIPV
- assay summary: Inhibition of human supersome CYP2C9 using diclofenac as substrate assessed as diclofenac 4'-hydroxylation after 30 mins by HPLC-UV detection
- Type: ADME
result type: pIC50
Just so you know, pIC50 here is -log10 of the concentration in molar units; reply with that number alone.

State the recorded pIC50 for this entry: "O=S(=O)(c1cncc2ccccc12)N1CCC[C@H]1CCN1CCN(c2nsc3ccccc23)CC1"
4.00

---

- experimental system: Cytochrome P450 2D6 (Homo sapiens, UniProt P10635)
- Sequence (P10635 whole entry): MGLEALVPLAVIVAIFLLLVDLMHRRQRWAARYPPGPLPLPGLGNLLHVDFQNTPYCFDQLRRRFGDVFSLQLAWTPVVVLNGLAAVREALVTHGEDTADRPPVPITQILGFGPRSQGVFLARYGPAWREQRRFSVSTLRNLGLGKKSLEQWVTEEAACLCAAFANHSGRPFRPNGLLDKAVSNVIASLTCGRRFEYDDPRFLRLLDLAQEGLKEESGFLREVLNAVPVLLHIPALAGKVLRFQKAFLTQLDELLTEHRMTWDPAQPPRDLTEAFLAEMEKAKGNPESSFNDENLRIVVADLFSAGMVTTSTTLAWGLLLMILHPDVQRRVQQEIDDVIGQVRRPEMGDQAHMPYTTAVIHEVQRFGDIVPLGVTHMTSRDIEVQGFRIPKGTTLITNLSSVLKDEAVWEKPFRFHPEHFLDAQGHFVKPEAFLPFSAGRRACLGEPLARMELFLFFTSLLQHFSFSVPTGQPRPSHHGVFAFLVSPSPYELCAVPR
Property: IC50; scope: individual compounds

- O=S(=O)(c1cncc2ccccc12)N1CCC[C@H]1CCN1CCN(c2cccc3sccc23)CC1: > 100 µM

Attention now shifts to the item below.
State the recorded IC50 for this entry: "O=S(=O)(c1cncc2ccccc12)N1CCC[C@H]1CCN1CCN(c2nsc3ccccc23)CC1"
> 100 µM

---

- assay summary: Drug level in Wistar rat brain at 3 mg/kg, ip measured after 15 mins by LC-MS/MS analysis
- Type: ADME, organism-based
- test parameters: read-out: Drug uptake
Property: concentration at 0.25 h; scope: individual molecules

Sample records with concentration at 0.25 h:
* O=S(=O)(c1cccc2cnccc12)N1CCC[C@H]1CCN1CCN(c2nsc3ccccc23)CC1 | 90.1 nM
* O=S(=O)(c1cccc2cnccc12)N1CCC[C@@H]1CCN1CCN(c2nsc3ccccc23)CC1 | 114 nM
* O=S(=O)(c1cncc2ccccc12)N1CCC[C@H]1CCN1CCN(c2cccc3sccc23)CC1 | 317 nM
* O=S(=O)(c1cncc2ccccc12)N1CCC[C@@H]1CCN1CCN(c2cccc3sccc23)CC1 | 266 nM
* O=S(=O)(c1cncc2ccccc12)N1CCC[C@@H]1CCN1CCN(c2nsc3ccccc23)CC1 | 218 nM

Attention now shifts to the item below.
State the recorded concentration at 0.25 h for this entry: "O=S(=O)(c1cncc2ccccc12)N1CCC[C@H]1CCN1CCN(c2nsc3ccccc23)CC1"
153 nM

---

- experimental system: UniProt:P34969
- Sequence (P34969 whole entry): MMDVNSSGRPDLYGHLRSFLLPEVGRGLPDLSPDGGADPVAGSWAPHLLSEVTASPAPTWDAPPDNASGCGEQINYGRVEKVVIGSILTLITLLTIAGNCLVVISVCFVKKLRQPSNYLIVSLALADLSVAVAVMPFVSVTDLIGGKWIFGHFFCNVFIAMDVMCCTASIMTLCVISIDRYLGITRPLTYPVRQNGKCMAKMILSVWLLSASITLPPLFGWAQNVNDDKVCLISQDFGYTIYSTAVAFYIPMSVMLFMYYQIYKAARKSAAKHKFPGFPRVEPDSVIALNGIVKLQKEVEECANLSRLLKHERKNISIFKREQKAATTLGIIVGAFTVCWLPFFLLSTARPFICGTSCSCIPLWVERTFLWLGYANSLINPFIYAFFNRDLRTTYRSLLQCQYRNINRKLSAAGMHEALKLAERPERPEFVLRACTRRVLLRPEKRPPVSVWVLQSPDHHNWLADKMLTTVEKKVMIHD
- assay summary: biochemical
- Description: Displacement of [3H]-5-CT from human 5-HT7R expressed in HEK293 cell membranes after 1 hr at 37 degC by microbeta counting method
Property: log10 Ki; scope: individual molecules
Quick note: numbers are log10 of Ki, with nM as the unit.

Sample records with log10 Ki:
* O=S(=O)(c1cncc2ccccc12)N1CCC[C@H]1CCN1CC=C(c2c[nH]c3ccc(Cl)cc23)CC1 | 1.99
* O=S(=O)(c1cncc2ccccc12)N1CCCCC[C@H]1CCN1CCN(c2cccc3sccc23)CC1 | 1.38
* O=S(=O)(c1cncc2ccccc12)N1CCC[C@H]1CCN1CCN(c2noc3ccccc23)CC1 | 0.78
* O=S(=O)(c1ccnc2ccccc12)N1CCCCC[C@H]1CCN1CCN(c2nsc3ccccc23)CC1 | 1.28
* O=S(=O)(c1cccc2ncccc12)N1CCCC[C@@H]1CCN1CCN(c2cccc3sccc23)CC1 | 1.34
* O=S(=O)(c1cccc2ncccc12)N1CCC[C@H]1CCN1CCN(c2cccc3sccc23)CC1 | 1.28

State the recorded log10 Ki for this entry: "O=S(=O)(c1cccc2ncccc12)N1CCC[C@H]1CCN1CCC(c2noc3cc(F)ccc23)CC1"
1.08

Param item: "O=S(=O)(c1cncc2ccccc12)N1CCC[C@H]1CCN1CCN(c2cccc3sccc23)CC1"
1.28

Param item: "O=S(=O)(c1ccnc2ccccc12)N1CCCC[C@@H]1CCN1CCN(c2nsc3ccccc23)CC1"
1.84
